protocol-notes: Pharmacokinetic experiment on Beagles
protocol-conditions: male, beagle, dog, plasma, po, 15 mg/kg
property: AUC(0-inf) (ng·h/mL)
// note: answer is a bare numeric in ng·h/mL

Task item: Please give the measured AUC(0-inf) for this molecule: Cc1nnc(C(C)C)n1C1CC2CCC(C1)N2CC[C@H](NC(=O)C1CCC(F)(F)CC1)c1ccsc1 (stereo partly shown)
Reply: 5520

====

protocol-notes: Cytotoxicity (CC50) in TZM-bl cells
Type: cell-based
protocol-conditions: human
property: CC50 at 3 days (µg/mL)
// note: answer is a bare numeric in µg/mL

Task item: Please give the measured CC50 at 3 days for this compound: Cc1nnc(C(C)C)n1C1CC2CCC(C1)N2CC[C@H](NC(=O)C1CCC(F)(F)CC1)c1csc2ccccc12 (some centres unmarked) [Compound 27]
Reply: 96.1

====

protocol-notes: in vivo
protocol-conditions: male, rat, po, 20 mg/kg
Each entry below carries its recorded AUC(0-inf).
// note: answer is a bare numeric in ng·h/mL

# molecule, AUC(0-inf) (ng·h/mL)
rows = [
    ("Cc1ccc([C@H](CCN2C3CCC2CC(n2c(C)nnc2C(C)C)C3)NC(=O)C2CCC(F)(F)CC2)s1 (some centres unmarked)", 2790),
    ("Cc1nnc(C(C)C)n1C1CC2CCC(C1)N2CC[C@H](NC(=O)C1CCCC1)c1cccs1 (some centres unmarked)", 3070),
    ("Cc1nnc(C(C)C)n1C1CC2CCC(C1)N2CC[C@H](NC(=O)C1CCC(F)(F)CC1)c1ccsc1 (some centres unmarked)", 1260),
    ("Cc1nnc(C(C)C)n1C1CC2CCC(C1)N2CC[C@H](NC(=O)C1CCCCC1)c1cccs1 (some centres unmarked)", 1510),
]

Task item: Please give the measured AUC(0-inf) for this molecule: Cc1nnc(C(C)C)n1C1CC2CCC(C1)N2CC[C@H](NC(=O)C1CCC(F)(F)CC1)c1cccs1 (some centres unmarked)
Reply: 1190

====

target-system: CYP3A4-T (Homo sapiens (Human), UniProt P08684)
Sequence (P08684 whole entry): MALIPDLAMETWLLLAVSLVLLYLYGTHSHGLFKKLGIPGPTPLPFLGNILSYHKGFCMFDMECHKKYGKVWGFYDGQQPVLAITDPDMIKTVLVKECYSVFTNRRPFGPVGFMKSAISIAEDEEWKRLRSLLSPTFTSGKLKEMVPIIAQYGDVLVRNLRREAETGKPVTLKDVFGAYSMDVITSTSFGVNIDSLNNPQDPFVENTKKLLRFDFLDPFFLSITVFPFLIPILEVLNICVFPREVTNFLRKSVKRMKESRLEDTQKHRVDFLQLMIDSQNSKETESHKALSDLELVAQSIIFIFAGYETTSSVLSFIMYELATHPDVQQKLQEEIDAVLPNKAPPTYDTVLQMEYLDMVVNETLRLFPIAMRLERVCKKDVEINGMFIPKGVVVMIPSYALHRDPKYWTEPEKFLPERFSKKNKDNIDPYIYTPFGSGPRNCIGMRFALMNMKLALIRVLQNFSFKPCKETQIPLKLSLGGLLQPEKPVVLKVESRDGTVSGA
protocol-notes: CYP450 inhibition activity assay (Vivid kit) CYP3A4-T
protocol-conditions: CYP450 subtype (μM) 3A4-T (IC50)
property: IC50 (µM)
// note: answer is a bare numeric in µM

# compound, IC50 [µM]
records = [
    ("Cc1nnc(C(C)C)n1C1CC2CCC(C1)N2CC[C@H](NC(=O)C1CCCCC1)c1cccs1 (some centres unmarked) [Compound 16]", 21.7),
]

The record that follows has no IC50 shown yet.
Task item: Please give the measured IC50 for this compound: Cc1ccc([C@H](CCN2C3CCC2CC(n2c(C)nnc2C(C)C)C3)NC(=O)C2CCC(F)(F)CC2)s1 (some centres unmarked) [Compound 29]
Reply: 23.4

====

target-system: UniProtKB P11712
Sequence (P11712 whole entry): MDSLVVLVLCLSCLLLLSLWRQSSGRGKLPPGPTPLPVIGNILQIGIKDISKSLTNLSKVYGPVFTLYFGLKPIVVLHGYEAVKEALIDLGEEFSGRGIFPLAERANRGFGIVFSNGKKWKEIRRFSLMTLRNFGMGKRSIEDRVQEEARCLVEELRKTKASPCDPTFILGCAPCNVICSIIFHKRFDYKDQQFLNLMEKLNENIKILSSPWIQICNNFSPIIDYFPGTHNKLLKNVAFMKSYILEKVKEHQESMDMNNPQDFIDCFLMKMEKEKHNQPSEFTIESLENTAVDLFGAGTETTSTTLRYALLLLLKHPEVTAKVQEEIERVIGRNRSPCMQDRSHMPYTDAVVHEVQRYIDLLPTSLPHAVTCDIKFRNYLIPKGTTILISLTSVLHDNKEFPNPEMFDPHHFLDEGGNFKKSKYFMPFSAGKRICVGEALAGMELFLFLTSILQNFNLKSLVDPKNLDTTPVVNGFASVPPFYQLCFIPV
protocol-notes: CYP450 inhibition activity assay (Vivid kit) CYP2C9
Type: in vitro ADME
protocol-conditions: CYP450 subtype (μM) 2C9 (IC50)
property: IC50

Consider the reported IC50 for these compounds:
# compound, IC50
rows = [
    ("Cc1nnc(C(C)C)n1C1CC2CCC(C1)N2CC[C@H](NC(=O)C1CCCCC1)c1cccs1 (stereo partly drawn)", "> 25 µM"),
    ("Cc1ccc([C@H](CCN2C3CCC2CC(n2c(C)nnc2C(C)C)C3)NC(=O)C2CCC(F)(F)CC2)s1 (stereo partly drawn)", "> 25 µM"),
    ("Cc1nnc(C(C)C)n1C1CCN(CC[C@H](NC(=O)C2CCCC2)c2cccs2)CC1", "> 25 µM"),
    ("Cc1nnc(C(C)C)n1C1CC2CCC(C1)N2CC[C@H](NC(=O)C1CCC(F)(F)CC1)c1ccsc1 (stereo partly drawn)", "> 25 µM"),
    ("Cc1nnc(C(C)C)n1C1CC2CCC(C1)N2CC[C@H](NC(=O)C1CCCC1)c1cccs1 (stereo partly drawn)", "> 25 µM"),
]

Task item: Please give the measured IC50 for this compound: Cc1nnc(C(C)C)n1[C@@H]1C[C@H]2CC[C@@H](C1)N2CC[C@H](NC(=O)C1CCC(F)(F)CC1)c1ccccc1 [Maraviroc, reference compound]
Reply: 14.4 µM
